Entry source: PubChem BioAssay AID602264

target: Mu-type opioid receptor (Homo sapiens) + Delta-type opioid receptor (Homo sapiens) (UniProt P35372+P41143); experiment: OPRM1-OPRD1 heterodimer agonist potency – cell-based, luminescence, counter-screen for MC4R biased agonist project, dose response (AID 602264); conditions: cell-based OPRM1-OPRD1 heterodimerization
Sequence (P35372 whole entry, looked up): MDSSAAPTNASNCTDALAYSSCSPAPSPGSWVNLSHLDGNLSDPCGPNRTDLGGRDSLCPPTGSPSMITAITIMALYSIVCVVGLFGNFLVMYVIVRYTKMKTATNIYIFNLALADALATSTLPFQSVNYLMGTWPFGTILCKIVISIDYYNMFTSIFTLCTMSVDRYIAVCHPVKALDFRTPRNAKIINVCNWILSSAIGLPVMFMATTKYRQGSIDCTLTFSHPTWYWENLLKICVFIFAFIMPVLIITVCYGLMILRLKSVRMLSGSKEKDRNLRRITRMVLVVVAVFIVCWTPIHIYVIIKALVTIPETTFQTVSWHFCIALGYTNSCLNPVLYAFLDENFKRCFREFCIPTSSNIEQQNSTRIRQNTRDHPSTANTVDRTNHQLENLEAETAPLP
Sequence (P41143 whole entry, looked up): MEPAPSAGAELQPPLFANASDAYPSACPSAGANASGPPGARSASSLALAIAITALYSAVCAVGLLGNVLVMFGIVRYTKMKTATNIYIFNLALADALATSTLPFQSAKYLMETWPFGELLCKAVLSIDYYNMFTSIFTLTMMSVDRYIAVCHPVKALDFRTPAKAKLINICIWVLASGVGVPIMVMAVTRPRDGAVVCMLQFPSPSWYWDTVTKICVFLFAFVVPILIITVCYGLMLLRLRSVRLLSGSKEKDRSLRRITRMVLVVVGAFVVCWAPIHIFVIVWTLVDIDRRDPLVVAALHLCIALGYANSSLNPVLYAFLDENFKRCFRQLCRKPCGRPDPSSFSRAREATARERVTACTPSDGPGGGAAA
The source made the active and inactive calls. No rule for the calls is given here.
QUANTITY KIND: EC50

Solved entries:
CCCCCCCCCCCCCCCC[n+]1cccc(C(=O)N(CC)CC)c1: > 64.6 µM (inactive)
O=CNc1cc(-c2ccsc2)cn2c(-c3ccccc3)cnc12: > 92.5 µM (inactive)
COc1cc(O)c(CC=C(C)C)c(O)c1C(=O)CCc1ccc(O)cc1: > 64.6 µM (inactive)
CCCCCCCCCCCCCCCC[n+]1ccc(/C=N/O)cc1: > 64.6 µM (inactive)
O=C(c1ccc(COc2ccc(Br)cc2)o1)N1N=C(C(F)F)CC1(O)C(F)F (stereo unspecified): inactive
C/C(=N\NC(=O)COc1cccc2ccccc12)c1cccs1: > 64.6 µM (inactive)
Cc1ccc(CN2CCC(c3cc(-c4ccc(Cl)cc4)n[nH]3)CC2)cc1: > 92.5 µM (inactive)
O=C(CCN1C(=O)/C(=C/C=C/c2ccccc2)SC1=S)Nc1cccnc1: > 92.5 µM (inactive)

Lookup: Given the entry CCOc1ccc(NC(=O)CSc2nc(-c3cccs3)cc(C(F)(F)F)n2)c([N+](=O)[O-])c1 , report its measured EC50.
Found: > 64.6 µM (inactive)

Lookup: Given the entry O=C(Nc1nc2ccc(SC(F)F)cc2s1)c1ccc(NS(=O)(=O)c2ccc(F)c(F)c2)cc1 , report its measured EC50.
Found: > 64.6 µM (inactive)
